protocol_text: ATG_RORE_CIS: Attagene CIS-FACTORIAL HepG2 Assay for human RAR-related Orphan Receptor Element (RORE) (AID 2282959)
condition_context: HepG2 Attagene cis-factorial RORE reporter, mRNA; actives raise or lower the signal
Active and inactive are the calls of the source. The calls were made as follows: active = hit-call score of the fitted dose curve at least 0.9, where 1 is the maximum; inactive = score below 0.9.
Pick one and only one: label 1 = active, label 0 = inactive

Examples with answers:
CC1=CC(=O)/C(=C(/C)O)C(=O)O1 ... label 0
Oc1ccccc1 ... label 0
c1ccc2ccccc2c1 ... label 0
CCO[Si](CCCNC(N)=O)(OCC)OCC ... label 0
O=C(O)c1ccccc1-n1cc(C(=O)O)c(=O)c2cc(Nc3c(F)cc(F)cc3Cl)c(Cl)cc21 ... label 0

Status in this test for "O=CCCCC=O" ? label 0

Status in this test for "CCCCCCCCOC(=O)c1cc(O)c(O)c(O)c1" ? label 0

Status in this test for "O=c1[nH]sc2ccccc12" ? label 0

Status in this test for "CCN(Cc1cccc(S(=O)(=O)O)c1)c1ccc(C(=C2C=CC(=[N+](CC)Cc3cccc(S(=O)(=O)O)c3)C=C2)c2ccccc2S(=O)(=O)[O-])cc1" ? label 0

Status in this test for "NCc1cccc(C2CCN(C(=O)c3ccc(C#Cc4ccccc4F)o3)CC2)c1" ? label 1

Status in this test for "Cc1cccc2ccccc12" ? label 0

Status in this test for "O=C=NCCCCCCN=C=O" ? label 0

Status in this test for "Cc1cn([C@H]2C[C@H](N=[N+]=[N-])[C@@H](CO)O2)c(=O)[nH]c1=O" ? label 0

###

tgt: bovine Estrogen Receptor (ER), ESR1 (gene 407238) (UniProt P49884)
Sequence (P49884 whole entry, looked up): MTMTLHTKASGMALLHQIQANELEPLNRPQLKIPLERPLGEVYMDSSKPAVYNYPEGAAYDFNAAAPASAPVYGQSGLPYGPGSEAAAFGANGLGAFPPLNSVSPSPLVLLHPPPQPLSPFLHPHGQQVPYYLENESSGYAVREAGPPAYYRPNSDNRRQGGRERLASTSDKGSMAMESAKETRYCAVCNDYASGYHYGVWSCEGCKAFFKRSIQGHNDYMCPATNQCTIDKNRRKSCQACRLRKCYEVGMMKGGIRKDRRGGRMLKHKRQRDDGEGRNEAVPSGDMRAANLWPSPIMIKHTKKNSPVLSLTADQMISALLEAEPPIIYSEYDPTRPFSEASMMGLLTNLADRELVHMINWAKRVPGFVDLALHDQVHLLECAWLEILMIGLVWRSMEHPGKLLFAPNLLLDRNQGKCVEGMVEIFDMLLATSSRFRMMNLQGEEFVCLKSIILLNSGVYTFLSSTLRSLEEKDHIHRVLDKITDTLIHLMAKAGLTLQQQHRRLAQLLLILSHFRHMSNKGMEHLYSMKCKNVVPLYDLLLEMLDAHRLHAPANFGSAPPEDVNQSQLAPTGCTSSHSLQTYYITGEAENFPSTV
protocol_text: NVS_NR_bER: NovaScreen (NVS) Nuclear Receptor Binding Assay for bovine Estrogen Receptor (ER) (AID 2283345);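 also: actives lower the bound radioligand count which means they displace the ER ligand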
Results filed as inconclusive are left out. Calls of active or inactive are those of the source. Rule for the calls: active = hit-call score of the fitted dose curve at least 0.9, where 1 is the maximum; inconclusive = response in the unintended direction; inactive = score below 0.9.
Pick one and only one: true (1) = active, false (0) = inactive

O=C(Nc1ccc(Cl)cc1)Nc1ccc(Cl)c(Cl)c1 ... false (0)
O=CCCCC=O ... false (0)
Clc1ccccc1C(c1ccccc1)(c1ccccc1)n1ccnc1 ... false (0)
CCCCCCCCOC(=O)c1cc(O)c(O)c(O)c1 ... true (1)
COc1cc(C(=O)NC2CCN(C)CC2)ccc1Nc1ncc2c(n1)N(C1CCCC1)CC(F)(F)C(=O)N2C ... false (0)

Status in this test for "CCCCCCCCCCCO" ? false (0)

Status in this test for "CN(C)c1ccc(C(=C2C=CC(=[N+](C)C)C=C2)c2ccc(N(C)C)cc2)cc1" ? false (0)

Status in this test for "CCCOC(=O)c1cc(O)c(O)c(O)c1" ? false (0)

Status in this test for "CC(C)(c1cc(Br)c(O)c(Br)c1)c1cc(Br)c(O)c(Br)c1" ? false (0)

Status in this test for "c1ccc(C[n+]2cccc3ccccc32)cc1" ? false (0)

Status in this test for "CC[C@H](NC(=O)c1cc(F)ccc1NS(=O)(=O)c1cccc2cccnc12)c1ccccc1" ? false (0)

###

Read-out: E-selectin (Homo sapiens) (UniProt P16581)
Sequence (P16581 whole entry, looked up): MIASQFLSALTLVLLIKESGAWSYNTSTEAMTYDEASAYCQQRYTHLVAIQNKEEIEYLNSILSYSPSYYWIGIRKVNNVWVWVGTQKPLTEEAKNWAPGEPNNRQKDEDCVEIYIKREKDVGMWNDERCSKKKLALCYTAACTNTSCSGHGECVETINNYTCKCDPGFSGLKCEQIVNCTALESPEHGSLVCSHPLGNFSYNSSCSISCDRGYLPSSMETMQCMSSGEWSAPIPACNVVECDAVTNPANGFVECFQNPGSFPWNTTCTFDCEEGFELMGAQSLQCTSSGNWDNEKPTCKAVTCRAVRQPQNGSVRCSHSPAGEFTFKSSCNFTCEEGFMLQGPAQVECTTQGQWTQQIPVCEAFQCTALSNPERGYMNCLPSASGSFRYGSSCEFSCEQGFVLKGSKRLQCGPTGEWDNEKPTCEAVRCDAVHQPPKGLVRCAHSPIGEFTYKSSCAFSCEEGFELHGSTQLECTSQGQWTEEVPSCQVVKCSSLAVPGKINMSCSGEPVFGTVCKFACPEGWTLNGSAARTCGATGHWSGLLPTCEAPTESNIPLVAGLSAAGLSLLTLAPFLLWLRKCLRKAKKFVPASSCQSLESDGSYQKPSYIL
protocol_text: BSK_3C_Eselectin: BioMAP Diversity Plus: 3C Assay for Eselectin Biomarker Activity (AID 2283015)
condition_context: primary human endothelial cells (HUVEC); actives raise or lower the signal
The source made the active and inactive calls. The calls were made as follows: active = hit-call score of the fitted dose curve at least 0.9, where 1 is the maximum; inactive = score below 0.9.
parameter: AC50

CCCOC(=O)c1cc(O)c(O)c(O)c1 ... inactive
CN1C(=O)N(c2ccccc2Br)Cc2cnc(Nc3ccc4c(c3)OCC(CO)O4)nc21 (stereo not drawn) ... 15.2 µM (active)
COCC(C)OCC(C)OCC(C)O (stereo not drawn) ... inactive
O=C(O)Cc1cc(I)c(Oc2ccc(O)c(I)c2)c(I)c1 ... inactive
Clc1cc(Cl)c2c(c1)N=C1CCCCCN1C2 ... inactive
CC1(C)NC(=O)N(c2ccc([N+](=O)[O-])c(C(F)(F)F)c2)C1=O ... inactive
CC(C)(c1cc(Br)c(O)c(Br)c1)c1cc(Br)c(O)c(Br)c1 ... 29 µM (active)
Cc1c2ccccc2c(C)c2c1ccc1ccccc12 ... inactive

Can you share its AC50? I mean this compound: "O=C=NCCCCCCN=C=O" inactive

Can you share its AC50? I mean this compound: "CCCCCCCCCCCCO" 31 µM (active)

Can you share its AC50? I mean this compound: "CO[C@H]1/C=C/O[C@@]2(C)Oc3c(C)c(O)c4c(O)c(c(/C=N/N5CCN(C)CC5)c(O)c4c3C2=O)NC(=O)/C(C)=C\C=C\[C@H](C)[C@H](O)[C@@H](C)[C@@H](O)[C@@H](C)[C@H](OC(C)=O)[C@@H]1C" inactive

Can you share its AC50? I mean this compound: CC(O)CC(C)(C)O (stereo not drawn) inactive

Can you share its AC50? I mean this compound: "CC(C)(O)c1ccc(CNC(=O)c2cccnc2Oc2ccc3nonc3c2)cc1" inactive

###

protocol_text: APR_HepG2_p53Act_24hr: Apredica 24-hour HepG2 Assay for p53 Activation (AID 2282913);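 also: p53 protein immunofluorescence averaged per cell in HepG2 with Hoechst nuclei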
condition_context: high-content imaging, actives raise or lower the signal
Active and inactive are the calls of the source. Rule for the calls: active = hit-call score of the fitted dose curve at least 0.9, where 1 is the maximum; inactive = score below 0.9.
Pick one and only one: Yes (active), No (inactive)

OCCO ... No
c1ccc2ccccc2c1 ... No
CCCCCc1ccc(N)cc1 ... No
Cc1c2ccccc2c(C)c2c1ccc1ccccc12 ... Yes
Oc1ccccc1 ... No

Now take the following compound into account.
Status in this test for "CCN(CC)C(=O)c1cc(S(=O)(=O)Cc2ccccc2)c(N2CCC(c3ccccc3)CC2)cc1N(CC)CCN(C)C" ? Yes

###

tgt: Beta-2 adrenergic receptor (Homo sapiens) (UniProt P07550)
Sequence (P07550 whole entry, looked up): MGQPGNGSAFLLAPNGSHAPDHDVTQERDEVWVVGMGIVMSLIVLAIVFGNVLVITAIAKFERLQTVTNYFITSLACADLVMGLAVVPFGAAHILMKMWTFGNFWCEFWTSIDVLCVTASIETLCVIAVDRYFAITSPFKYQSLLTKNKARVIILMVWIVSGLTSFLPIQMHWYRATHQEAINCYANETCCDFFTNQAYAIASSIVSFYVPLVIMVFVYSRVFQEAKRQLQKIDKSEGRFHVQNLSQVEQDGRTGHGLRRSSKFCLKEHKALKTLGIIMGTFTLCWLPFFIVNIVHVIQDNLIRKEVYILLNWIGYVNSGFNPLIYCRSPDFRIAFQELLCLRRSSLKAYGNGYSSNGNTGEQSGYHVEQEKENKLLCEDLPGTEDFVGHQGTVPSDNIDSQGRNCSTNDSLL
protocol_text: NVS_GPCR_hAdrb2: NovaScreen (NVS) G Protein-Coupled Receptor Assay for human Adrenergic, Beta 2 Receptor (Adrb2) (AID 2283261)
Inconclusive results are not listed. Activity calls are given as the source filed them. Rule for the calls: active = hit-call score of the fitted dose curve at least 0.9, where 1 is the maximum; inconclusive = response in the unintended direction; inactive = score below 0.9.
Pick one and only one: Y = active, N = inactive

CN(C)c1ccc(C(=C2C=CC(=[N+](C)C)C=C2)c2ccc(N(C)C)cc2)cc1 ... Y
CCN(CC)C(=O)c1cc(S(=O)(=O)Cc2ccccc2)c(N2CCC(c3ccccc3)CC2)cc1N(CC)CCN(C)C ... Y
CN(C)C(=O)C1(N2CCCCC2)CCN(CC[C@@]2(c3ccc(Cl)c(Cl)c3)CN(C(=O)c3ccccc3)CCO2)CC1 ... Y
Cc1cc(F)ccc1-c1cc(N2CC[C@@H](O)[C@H]2CO)ncc1N(C)C(=O)C(C)(C)c1cc(C(F)(F)F)cc(C(F)(F)F)c1 ... N

Status in this test for "NCc1cccc(C2CCN(C(=O)c3ccc(C#Cc4ccccc4F)o3)CC2)c1" ? Y

###

Read-out: Nuclear factor NF-kappa-B p105 subunit (Homo sapiens) (UniProt P19838)
Sequence (P19838 whole entry, looked up): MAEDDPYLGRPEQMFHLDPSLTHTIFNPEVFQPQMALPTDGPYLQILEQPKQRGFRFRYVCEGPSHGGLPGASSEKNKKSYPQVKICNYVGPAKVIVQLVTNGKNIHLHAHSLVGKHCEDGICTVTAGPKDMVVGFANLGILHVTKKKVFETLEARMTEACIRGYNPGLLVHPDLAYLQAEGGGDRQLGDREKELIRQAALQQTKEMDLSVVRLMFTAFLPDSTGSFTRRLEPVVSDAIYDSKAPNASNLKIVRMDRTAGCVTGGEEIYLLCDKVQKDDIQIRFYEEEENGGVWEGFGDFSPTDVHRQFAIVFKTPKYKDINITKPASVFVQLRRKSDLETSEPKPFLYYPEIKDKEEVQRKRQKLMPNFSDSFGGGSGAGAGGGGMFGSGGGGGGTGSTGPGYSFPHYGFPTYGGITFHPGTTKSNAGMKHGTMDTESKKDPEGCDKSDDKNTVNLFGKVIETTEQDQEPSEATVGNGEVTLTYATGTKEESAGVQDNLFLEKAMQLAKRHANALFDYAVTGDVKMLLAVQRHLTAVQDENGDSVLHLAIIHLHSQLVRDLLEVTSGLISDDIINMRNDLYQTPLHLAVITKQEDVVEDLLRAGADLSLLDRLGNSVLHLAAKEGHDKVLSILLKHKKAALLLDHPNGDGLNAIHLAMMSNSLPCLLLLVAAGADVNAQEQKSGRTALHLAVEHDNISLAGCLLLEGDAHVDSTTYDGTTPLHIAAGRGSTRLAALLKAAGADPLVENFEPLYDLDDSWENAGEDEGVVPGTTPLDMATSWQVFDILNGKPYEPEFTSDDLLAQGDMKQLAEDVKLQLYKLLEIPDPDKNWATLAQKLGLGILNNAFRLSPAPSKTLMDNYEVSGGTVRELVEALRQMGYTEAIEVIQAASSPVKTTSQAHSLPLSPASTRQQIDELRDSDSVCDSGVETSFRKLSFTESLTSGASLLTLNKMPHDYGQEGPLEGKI
protocol_text: LTEA_HepaRG_NFKB1: Life Technologies and Expression Analysis (LTEA) Assay for Nuclear Factor Kappa B Subunit 1 (NFKB1) using HepaRG (AID 2283521)
condition_context: mRNA level, 48 h; actives raise or lower the signal
Active and inactive are the calls of the source. The calls were made as follows: active = hit-call score of the fitted dose curve at least 0.9, where 1 is the maximum; inactive = score below 0.9.
Pick one and only one: active, inactive

Status in this test for "CC(=O)N1CCN(c2ccc(OC[C@H]3CO[C@](Cn4ccnc4)(c4ccc(Cl)cc4Cl)O3)cc2)CC1" ? inactive

Status in this test for "CCN(Cc1cccnc1)C(=O)c1cccc(Cl)c1[C@]1(C)C(=O)N(Cc2ccc(OC)cc2OC)c2ccc(Cl)cc21" ? active

Status in this test for "CN1C(=O)CC[C@H]1c1cccnc1" ? inactive

Status in this test for "CC(C)(O)c1ccc(CNC(=O)c2cccnc2Oc2ccc3nonc3c2)cc1" ? inactive

Status in this test for "Clc1ccccc1C(c1ccccc1)(c1ccccc1)n1ccnc1" ? inactive

Status in this test for "c1ccc(C[n+]2cccc3ccccc32)cc1" ? inactive

Status in this test for "O=C1c2ccccc2C(=O)N1CCc1noc(-c2ccc(CN3CCCCCC3)s2)n1" ? inactive

Status in this test for CN1C(=O)N(c2ccccc2Br)Cc2cnc(Nc3ccc4c(c3)OCC(CO)O4)nc21 (stereo not given) ? active

Status in this test for "Cc1cc(F)ccc1-c1cc(N2CC[C@@H](O)[C@H]2CO)ncc1N(C)C(=O)C(C)(C)c1cc(C(F)(F)F)cc(C(F)(F)F)c1" ? inactive

###

protocol_text: ATG_M_19_CIS: Attagene CIS-FACTORIAL HepG2 Assay for M19 Transcription Factor (Internal Marker) (AID 2282939)
condition_context: HepG2 Attagene CIS-FACTORIAL M19 internal marker reporter; actives raise or lower the signal
Calls of active or inactive are those of the source. The calls were made as follows: active = hit-call score of the fitted dose curve at least 0.9, where 1 is the maximum; inactive = score below 0.9.
Pick one and only one: yes (1) = active, no (0) = inactive

Examples with answers:
NC(=O)c1nc(-c2cccc(-c3cc(F)ccc3OCC(F)(F)C(F)(F)F)c2)n[nH]1 ... no (0)
O=C(OCCCCCCOC(=O)c1ccccc1)c1ccccc1 ... no (0)

Status in this test for "Cc1cccc2ccccc12" ? no (0)

Status in this test for "CCCCCc1ccc(N)cc1" ? no (0)

Status in this test for "Cc1c2ccccc2c(C)c2c1ccc1ccccc12" ? yes (1)

Status in this test for "Cc1cc2c(cc1C(F)(F)F)N(C(=O)Nc1ccc(Oc3cccnc3C)nc1)CC2" ? no (0)
